Where do the numbers come from? From patent US20240246960A1.

assay: Pharmacokinetic study in rats (IV, PO); format: in vivo, Sprague-Dawley rats; settings: male, Sprague-Dawley; Table B; Rat Plasma; PO; 10 mg/kg
OUTCOME_MEASURE: half-life (h)
Your answer should be a plain number; it is taken to be in h.

Prompt: Recorded half-life of O=C(N[C@H]1CC[C@@H](Oc2nc(N3CCOCC3)cc3ncccc23)CC1)c1ncccn1 , please.
Completion: 4.26

* * *

assay: Pharmacokinetic study in rats (IV, PO); format: in vivo, Sprague-Dawley rats; settings: male, Sprague-Dawley; Table B; Rat Plasma; PO; 3 mg/kg; read-out: Cmax (5 min)
OUTCOME_MEASURE: Cmax (ng/mL)
Your answer should be a plain number; it is taken to be in ng/mL.

Prompt: Recorded Cmax of O=C(N[C@H]1CC[C@@H](Oc2nc(N3CCOCC3)cc3ncccc23)CC1)c1ncccn1 , please.
Completion: 32.2

* * *

assay: Microsomal stability assay, mouse liver microsomes; settings: Example 11; 60 min
OUTCOME_MEASURE: Microsomal Stability (mouse) % rem. 60 min

Use the examples below as a reference point.
# COMPOUND, VAL
data = [
    ("CC(c1cnc([N+](=O)[O-])n1C)N(c1cnc2cc(N3CCOCC3)nc(OC3CCC(Nc4ncc(C(F)(F)F)cn4)CC3)c2c1)S(C)(=O)=O (stereo not drawn)", "E (% remaining = 0-25%)"),
    ("CC(c1cnc([N+](=O)[O-])n1C)N(c1cnc2cc(N3CCOCC3)nc(OC3CCC(Nc4ncccn4)CC3)c2c1)S(C)(=O)=O (stereo not drawn)", "E (% remaining = 0-25%)"),
    ("CS(=O)(=O)Nc1cnc2cc(N3CCOCC3)nc(O[C@H]3CC[C@@H](Nc4ncc(C(F)(F)F)cn4)CC3)c2c1", "G (% remaining = 50-75%)"),
    ("CS(=O)(=O)Nc1cnc2cc(N3CCOCC3)nc(O[C@H]3CC[C@@H](Nc4ncc(C#N)cn4)CC3)c2c1", "G (% remaining = 50-75%)"),
    ("O=C(N[C@H]1CC[C@@H](Oc2nc(N3CCOCC3)cc3ncc(O)cc23)CC1)c1ncccn1", "G (% remaining = 50-75%)"),
]

Prompt: Recorded Microsomal Stability (mouse) % rem. 60 min of CS(=O)(=O)Nc1cnc2cc(N3CCOCC3)nc(O[C@H]3CC[C@@H](Nc4ncccn4)CC3)c2c1 , please.
Completion: G (% remaining = 50-75%)

Prompt: Recorded Microsomal Stability (mouse) % rem. 60 min of CC(c1cnc([N+](=O)[O-])n1C)N(c1cnc2cc(N3CCOCC3)nc(OC3CCC(Nc4ncc(C#N)cn4)CC3)c2c1)S(C)(=O)=O (stereo not drawn) , please.
Completion: E (% remaining = 0-25%)

* * *

pIC50 values, listed per item
target: DNA-PK (Homo sapiens, UniProt P78527); construct: purchased Invitrogen PR9107A; test: DNA-PK Assay for Biochemical Enzymatic Inhibition (ADP Glo Kinase assay); conditions: Table 1
pIC50: −log10 of the molar value.

Use the examples below as a reference point.
# MOLECULE, VAL
records = [
    ("Cn1cnc(N[C@H]2CC[C@@H](Oc3nc(N4CCOCC4)cc4ncccc34)CC2)n1", "> 9.30"),
    ("COc1cnc(N[C@H]2CC[C@@H](Oc3nc(N4CCOCC4)cc4ncc(NS(C)(=O)=O)cc34)CC2)nc1", "> 9.30"),
    ("Cn1ccc2nc(N[C@H]3CC[C@@H](Oc4nc(N5CCOCC5)cc5ncccc45)CC3)ncc21", "> 9.30"),
    ("O=C(N[C@H]1CC[C@@H](Oc2nc(N3CCOCC3)cc3ncccc23)CC1)c1ccc(Cl)nc1", "9.00 to 9.30"),
    ("Cc1nccnc1N[C@H]1CC[C@@H](Oc2nc(N3CCOCC3)cc3ncccc23)CC1", "9.00 to 9.30"),
]

Prompt: # query: pIC50 | item CN(c1ncccn1)[C@H]1CC[C@@H](Oc2nc(N3CCOCC3)cc3ncc(NS(C)(=O)=O)cc23)CC1 | system: DNA-PK (Homo sapiens, UniProt P78527)
Completion: 9.00 to 9.30

Prompt: # query: pIC50 | item Cn1cc([C@H]2CC[C@@H](Oc3nc(N4CCOCC4)cc4ncc(O)cc34)CC2)cn1 | system: DNA-PK (Homo sapiens, UniProt P78527)
Completion: 6.82 to 8.00

Prompt: # query: pIC50 | item CN(c1cnc2cc(N3CCOCC3)nc(O[C@H]3CC[C@@H](Nc4ncccn4)CC3)c2c1)S(C)(=O)=O | system: DNA-PK (Homo sapiens, UniProt P78527)
Completion: 8.00 to 9.00

* * *

pIC50 values, listed per item
Biological target: DNA-PK (Homo sapiens, UniProt P78527)
Construct: purchased Invitrogen PR9107A
Test: DNA-PK Assay for Biochemical Enzymatic Inhibition (ADP Glo Kinase assay)
Conditions: Table 1
Method: A biochemical assay was performed to identify IC50 values against DNA-PK activity in a two-step reaction with a kinase reaction followed by ADP Glo™ Kinase assay Kit (Promega V9102). Three-fold serial dilutions of compounds in DMSO were prepared in kinase assay buffer (50 mM HEPES pH 7.5, 20 mM MgCl2, 100 mM KCl, 50 μM DTT, 10 μg/ml calf thymus DNA, 0.01% Tween 20). […] DMSO controls were prepared to produce a maximum and minimum luminescence signal for normalization. […]
pIC50: −log10 of the molar value.

# MOLECULE, VAL
data = [
    ("CS(=O)(=O)Nc1cnc2cc(N3CCOCC3)nc(O[C@H]3CC[C@@H](n4ccnc4)CC3)c2c1 [Compound 161]", "> 9.30"),
    ("COc1ccnc(C(=O)N[C@H]2CC[C@@H](Oc3nc(N4CCOCC4)cc4ncccc34)CC2)n1 [Compound 131]", "9.00 to 9.30"),
    ("CCOC(=O)N[C@H]1CC[C@@H](Oc2nc(N3CCOCC3)cc3ncccc23)CC1 [Compound 104]", "6.82 to 8.00"),
]

Prompt: # query: pIC50 | item O=C(N[C@H]1CC[C@@H](Oc2nc(N3CCOCC3)cc3ncccc23)CC1)c1cc[nH]c1 [Compound 140] | system: DNA-PK (Homo sapiens, UniProt P78527)
Completion: > 9.30

Prompt: # query: pIC50 | item Cc1cnc(N[C@H]2CC[C@@H](Oc3nc(N4CCOCC4)cc4ncccc34)CC2)nc1 [Compound 32] | system: DNA-PK (Homo sapiens, UniProt P78527)
Completion: > 9.30

Prompt: # query: pIC50 | item COc1cnc(N[C@H]2CC[C@@H](Oc3nc(N4CCOCC4)cc4ncc(O)cc34)CC2)nc1 [Compound 19c] | system: DNA-PK (Homo sapiens, UniProt P78527)
Completion: > 9.30

* * *

pEC50 values, listed per item
Target: pDNA-PK ser2056 induction in FaDU spheroids (Homo sapiens)
Construct: host or cells: FaDu
Assay: Multicellular tumour spheroid + radiation, pDNA-PK inhibition, FaDU
Assay type: cell-based
Conditions: Example 9 Study 2; 20 Gy; 20% O2; read-out: Spheroid Cell line: FaDU Immunohistochemical endpoint pDNA-PK inhibition EC50
Method: Multicellular tumour spheroids determination of compound inhibition of pDNA-PK induction following radiation. Tumour spheroids were grown to approximately 0.5 mm in diameter and irradiated with 20 Gy in combination with inhibitor test compounds to determine their potency. […] For cell survival endpoint 8 Gy radiation was used and 3 hours following radiation spheroids were dissociated, counted and plated for colony forming endpoint. […]
pEC50: −log10 of the molar value.

Use the examples below as a reference point.
# COMPOUND, OUTCOME_MEASURE, VAL
data = [
    ("c1cnc2cc(N3CCOCC3)nc(O[C@H]3CC[C@@H](Nc4ccncc4)CC3)c2c1", "pEC50", "6.30 to 8.00"),
    ("Cc1nc(C(F)(F)F)cn1[C@H]1CC[C@@H](Oc2nc(N3CCOCC3)cc3ncccc23)CC1 [Compound 17i]", "pEC50", "6.00 to 6.30"),
    ("FC(F)(F)c1cncn1[C@H]1CC[C@@H](Oc2nc(N3CCOCC3)cc3ncccc23)CC1 [Compound 17j]", "pEC50", "6.00 to 6.30"),
    ("O=C(N[C@H]1CC[C@@H](Oc2nc(N3CCOCC3)cc3ncccc23)CC1)c1ncccn1", "pEC50", "6.30 to 8.00"),
    ("Fc1cn([C@H]2CC[C@@H](Oc3nc(N4CCOCC4)cc4ncccc34)CC2)cn1 [Compound 17a]", "pEC50", "6.00 to 6.30"),
]

Prompt: Recorded pEC50 of O=C(N[C@H]1CC[C@@H](Oc2nc(N3CCOCC3)cc3ncccc23)CC1)c1ccc(F)cc1 , please.
Completion: 6.00 to 6.30
